System: various strains of bacteria
assaySummary: Antimicrobial potency: bacterial growth inhibition by OD600 (Antibacterial assay 1)
Assay type: cell-based
conditionDescription: read-out: Antibacterial assay 1 (MITC95)
Procedure: The concentrations of compounds required to inhibit the growth of various strains of bacteria were determined in an assay that assessed bacterial growth by measuring optical density at 600 nm (OD600). Test articles were dissolved in 100% DMSO and serially diluted two-fold from their maximal concentration in 100% DMSO. Forty-nine μl of bacterial inoculum (at approx. 2×10^5 cfu/mL in CAMHB) were put into wells of an assay plate. […] Bacterial growth was measured by reading OD600 on a spectrophotometer. […]

molecule	unitsSymbol	MIC
O=C(CCCOc1ccc(NS(=O)(=O)c2ccc(-c3ccc(Cl)cc3)s2)c(C(=O)O)c1)Nc1ccc(NS(=O)(=O)c2ccc(-c3ccc(Cl)cc3)s2)c(C(=O)O)c1 [Compound 4]	µM	0.0122
CCCCc1ccc(S(=O)(=O)Nc2ccc(NC(=O)CCC(=O)Nc3ccc(NS(=O)(=O)c4ccc(CCCC)cc4)c(C(=O)O)c3)cc2C(=O)O)cc1 [Compound 2]	µM	0.0568
CCCCc1ccc(S(=O)(=O)Nc2ccc(NC(=O)CCC(=O)Nc3ccc(NS(=O)(=O)c4ccc(CCCC)cc4)c(P(=O)(O)O)c3)cc2C(=O)O)cc1 [Compound 1]	µM	1.56
CCCCc1ccc(S(=O)(=O)Nc2ccc(OCCCC(=O)Nc3ccc(NS(=O)(=O)c4ccc(CCCC)cc4)c(C(=O)O)n3)cc2C(=O)O)cc1 [Compound 10]	µM	0.985
O=C(CCCOc1ccc(NS(=O)(=O)c2cnn(-c3ccc(Cl)cc3)c2)c(C(=O)O)c1)Nc1ccc(NS(=O)(=O)c2ccc(-c3cc(Cl)cc(Cl)c3)cc2)c(C(=O)O)c1 [Compound 5]	µM	0.0122
CCCCc1ccc(S(=O)(=O)Nc2ccc(NC(=O)CCNC(=O)c3ccc(NS(=O)(=O)c4ccc(CCCC)cc4)c(C(=O)O)c3)cc2C(=O)O)cc1 [Compound 20]	µM	0.112
